Recorded Ki values for a group of compounds are listed next.
- Target system: recombinant human ALK5 (TGF-βR1) protein (Homo sapiens)
- Sequence (P36897 34-503): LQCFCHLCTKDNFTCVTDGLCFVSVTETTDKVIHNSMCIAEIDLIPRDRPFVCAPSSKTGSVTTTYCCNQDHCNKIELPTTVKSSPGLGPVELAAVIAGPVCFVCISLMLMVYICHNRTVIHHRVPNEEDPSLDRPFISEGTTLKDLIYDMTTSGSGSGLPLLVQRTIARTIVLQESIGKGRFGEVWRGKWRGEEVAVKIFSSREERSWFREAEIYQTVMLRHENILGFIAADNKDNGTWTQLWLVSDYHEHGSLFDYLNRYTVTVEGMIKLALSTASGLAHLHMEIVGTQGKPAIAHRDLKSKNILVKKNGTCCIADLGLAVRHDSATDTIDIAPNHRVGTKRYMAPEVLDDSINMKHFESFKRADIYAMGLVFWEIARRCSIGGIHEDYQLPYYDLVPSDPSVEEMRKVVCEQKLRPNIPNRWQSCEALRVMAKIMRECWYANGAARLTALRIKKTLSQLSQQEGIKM
- Experimental protocol: Biochemical ALK5 (TGF-βR1) assay to measure pKi (LANCE Ultra ULight kinase assay)
- Measurement conditions: apparent pKi, converted from pIC50 using the Cheng-Prusoff equation
Observation type: Ki

[[record]]
item_smiles = "N[C@@H]1CCCC[C@H]1n1cc(-c2cnc3ccc(-c4nc[nH]c4-c4cc(Cl)c(F)cc4F)cc3c2)cn1"
observation_type = "Ki"
assay_result = "0.0398 to 0.316 nM"

[[record]]
item_smiles = "Fc1ccc(Cl)cc1-c1[nH]cnc1-c1ccc2ncc(Nc3ccc(N4CCN(Cc5ccccc5)CC4)cn3)cc2n1"
observation_type = "Ki"
assay_result = "3.98 to 31.6 nM"

[[record]]
item_smiles = "CC(C)N1CCN(c2ccc(Nc3cnc4ccc(-c5nc[nH]c5-c5cc(Cl)ccc5F)nc4c3)nc2)CC1"
observation_type = "Ki"
assay_result = "0.0398 to 0.316 nM"

[[record]]
item_smiles = "Fc1ccc(Cl)cc1-c1n[nH]cc1-c1ccc2ncc(N3CCC(N4CCCC4)CC3)cc2n1"
observation_type = "Ki"
assay_result = "0.0398 to 0.316 nM"

[[record]]
item_smiles = "CN1CC=C(c2cnc3ccc(-c4c[nH]nc4-c4ccc(F)c(F)c4)nc3c2)C1"
observation_type = "Ki"
assay_result = "0.398 to 3.16 nM"

[[record]]
item_smiles = "COCc1cccc(-c2n[nH]cc2-c2ccc3ncc(NCCN4CCN(C(C)C)CC4)cc3n2)c1"
observation_type = "Ki"
assay_result = "3.98 to 31.6 nM"

[[record]]
item_smiles = "CNC(=O)[C@@H]1CN(c2cnc3ccc(-c4c[nH]nc4-c4cc(Cl)c(F)cc4F)nc3c2)CCN1"
observation_type = "Ki"
assay_result = "0.398 to 3.16 nM"

[[record]]
item_smiles = "CNCCn1ccc(-c2cnc3ccc(-c4c[nH]nc4-c4cc(Cl)ccc4F)nc3c2)n1"
observation_type = "Ki"
assay_result = "0.0398 to 0.316 nM"

[[record]]
item_smiles = "Fc1cc(F)c(-c2n[nH]cc2-c2ccc3ncc(-c4cn5c(n4)CNCC5)cc3n2)cc1Cl"
observation_type = "Ki"
assay_result = "0.0398 to 0.316 nM"

[[record]]
item_smiles = "NCCn1cc(-c2cnc3ccc(-c4c[nH]nc4-c4cc(Cl)ccc4F)nc3c2)cn1"
observation_type = "Ki"
assay_result = "≤ 0.0316 nM"

[[record]]
item_smiles = "COC(=O)[C@@H]1CN(c2cnc3ccc(-c4c[nH]nc4-c4cc(Cl)ccc4F)nc3c2)CCN1"
observation_type = "Ki"
assay_result = "0.398 to 3.16 nM"

[[record]]
item_smiles = "CC(C)N1CCN(CCNc2cnc3ccc(-c4nc[nH]c4-c4ccc(F)c(F)c4)nc3c2)CC1"
observation_type = "Ki"
assay_result = "3.98 to 31.6 nM"

